Value source: ChEMBL document CHEMBL2331426

Biological target: fMet-Leu-Phe receptor 1/2 (Homo sapiens, UniProt P21462+P25090)
Experiment: Agonist activity at FPR1/FPR2 receptor in human neutrophils assessed as induction of chemotaxis after 60 mins
Please respond with MET when measured EC50 is strictly beneath 9 nM, and with NOT MET in all other cases.

Take the molecule COC(=O)[C@@]1(NC(=O)[C@H](CC(C)C)NC(=O)[C@H](CCSC)NC=O)C[C@H]1c1ccccc1 and say whether its EC50 is less than 9 nM.
MET

Take the molecule COC(=O)[C@]1(NC(=O)[C@H](CC(C)C)NC(=O)[C@H](CCSC)NC=O)C[C@H]1c1ccccc1 and say whether its EC50 is less than 9 nM.
NOT MET

Take the molecule COC(=O)[C@H](Cc1ccccc1)NC(=O)[C@H](CC(C)C)NC(=O)[C@H](CCSC)NC=O and say whether its EC50 is less than 9 nM.
MET

Take the molecule COC(=O)[C@]1(NC(=O)[C@H](CC(C)C)NC(=O)[C@H](CCSC)NC=O)C[C@@H]1c1ccccc1 and say whether its EC50 is less than 9 nM.
NOT MET

* * *

Molecular target: fMet-Leu-Phe receptor 1/2 (Homo sapiens) (UniProt P21462+P25090)
Sequence (P21462 whole entry, looked up): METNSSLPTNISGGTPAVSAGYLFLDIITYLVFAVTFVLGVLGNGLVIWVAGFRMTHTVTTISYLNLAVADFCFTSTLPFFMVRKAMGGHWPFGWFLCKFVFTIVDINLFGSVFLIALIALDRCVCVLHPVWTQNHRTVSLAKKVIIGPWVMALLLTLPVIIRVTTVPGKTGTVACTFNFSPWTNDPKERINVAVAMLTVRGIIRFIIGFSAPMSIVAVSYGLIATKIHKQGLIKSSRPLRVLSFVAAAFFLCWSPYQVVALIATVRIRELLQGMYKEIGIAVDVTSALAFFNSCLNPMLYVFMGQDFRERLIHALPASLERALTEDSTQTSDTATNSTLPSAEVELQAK
Sequence (P25090 whole entry, looked up): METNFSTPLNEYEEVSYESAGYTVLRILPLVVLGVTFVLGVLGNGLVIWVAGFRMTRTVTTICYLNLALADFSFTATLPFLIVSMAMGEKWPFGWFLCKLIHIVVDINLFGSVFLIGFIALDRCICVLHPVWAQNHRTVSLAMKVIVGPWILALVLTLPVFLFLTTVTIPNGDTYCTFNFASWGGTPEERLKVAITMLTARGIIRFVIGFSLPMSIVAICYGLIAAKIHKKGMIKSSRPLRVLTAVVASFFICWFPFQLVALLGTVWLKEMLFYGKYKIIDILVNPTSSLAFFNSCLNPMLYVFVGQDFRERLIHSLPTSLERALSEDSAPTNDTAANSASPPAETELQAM
Assay: Agonist activity at FPR1/FPR2 receptor in human neutrophils assessed as induction of chemotaxis after 60 mins relative to fMLP-OMe
READOUT: Activity (%)
Write it as a number; the unit % goes unstated.

So what's the measured Activity for this one? CSCC[C@H](NC=O)C(=O)N[C@@H](CC(C)C)C(=O)N[C@]1(C(=O)O)C[C@@H]1c1ccccc1
26

So what's the measured Activity for this one? COC(=O)[C@@]1(NC(=O)[C@H](CC(C)C)NC(=O)[C@H](CCSC)NC=O)C[C@H]1c1ccccc1
53

So what's the measured Activity for this one? COC(=O)[C@]1(NC(=O)[C@H](CC(C)C)NC(=O)[C@H](CCSC)NC=O)C[C@H]1c1ccccc1
12

So what's the measured Activity for this one? COC(=O)[C@]1(NC(=O)[C@H](CC(C)C)NC(=O)[C@H](CCSC)NC=O)C[C@@H]1c1ccccc1
18

* * *

Target: N-formyl peptide receptor 2 (Homo sapiens)
Experiment: Binding affinity to FPR2 receptor in human neutrophils assessed as induction of intracellular calcium mobilization at 1 uM in presence of MMK-1
Type: functional, cell-based
Active and inactive are the calls of the source. The rule behind the calls is not given here.
Lab note: assign the record to one of active, inactive

Called result for COC(=O)[C@]1(NC(=O)[C@H](CC(C)C)NC(=O)[C@H](CCSC)NC=O)C[C@@H]1c1ccccc1
inactive

Called result for CSCC[C@H](NC=O)C(=O)N[C@@H](CC(C)C)C(=O)N[C@]1(C(=O)O)C[C@@H]1c1ccccc1
active

Called result for COC(=O)[C@]1(NC(=O)[C@H](CC(C)C)NC(=O)[C@H](CCSC)NC=O)C[C@H]1c1ccccc1
active

Called result for COC(=O)[C@@]1(NC(=O)[C@H](CC(C)C)NC(=O)[C@H](CCSC)NC=O)C[C@H]1c1ccccc1
inactive

* * *

Biological target: fMet-Leu-Phe receptor 1/2 (Homo sapiens) (UniProt P21462+P25090)
Assay: Agonist activity at FPR1/FPR2 receptor in human neutrophils assessed as stimulation of fMLP-OMe-induced superoxide radical generation at 0.1 uM incubated for 5 mins followed by fMLP-OMe induction by spectrophotometric analysis relative to control
READOUT: Activity
Please provide the amount together with its unit, number first.

Query for fMet-Leu-Phe receptor 1/2 (Homo sapiens) (UniProt P21462+P25090): what Activity does the record show for CSCC[C@H](NC=O)C(=O)N[C@@H](CC(C)C)C(=O)N[C@]1(C(=O)O)C[C@@H]1c1ccccc1 ?
200%

Query for fMet-Leu-Phe receptor 1/2 (Homo sapiens) (UniProt P21462+P25090): what Activity does the record show for COC(=O)[C@]1(NC(=O)[C@H](CC(C)C)NC(=O)[C@H](CCSC)NC=O)C[C@H]1c1ccccc1 ?
175%

Query for fMet-Leu-Phe receptor 1/2 (Homo sapiens) (UniProt P21462+P25090): what Activity does the record show for COC(=O)[C@]1(NC(=O)[C@H](CC(C)C)NC(=O)[C@H](CCSC)NC=O)C[C@@H]1c1ccccc1 ?
114%

Query for fMet-Leu-Phe receptor 1/2 (Homo sapiens) (UniProt P21462+P25090): what Activity does the record show for COC(=O)[C@@]1(NC(=O)[C@H](CC(C)C)NC(=O)[C@H](CCSC)NC=O)C[C@H]1c1ccccc1 ?
114%
